- Tested on: CAKI-1 renal
- ASSAY NAME: NCI tumour cell line growth inhibition, 48 h
Where a SMILES comes first, the peptide text is derived from it. [ ]: non-standard residue; d: D form. β3hI = CC[CH](C)[CH](N)CC(=O)O
# TGI per entry
REPORTED PROPERTY: TGI

MOLECULE	MEASURED
CC(C)NCC(O)c1ccc(OCc2ccccc2)c(OCc2ccccc2)c1-c1ccccc1 (stereo not drawn)	3.18 µM
COC1=CC(c2ccc[nH]2)=N/C1=C\c1ccc[nH]1	3.26 µM
N.N.NCCCCN.O=C([O-])C1(C(=O)[O-])CCC1.O=C([O-])C1(C(=O)[O-])CCC1.[Pt+4].[Pt+4]	> 100 µM
O=C(O)CC/C(=N\Nc1nsc2ccccc12)c1ccc(Cl)cc1	52.2 µM
CCC(C)C(CC(=O)N1CCCC1C(=O)NC(C(=O)NC(C(=O)NCC(=O)NC(CC(N)=O)C(=O)NC(C(=O)NC(C(=O)NC(CCCCN)C(N)=O)C(C)CC)C(C)CC)C(C)C)C(C)CC)NC(=O)C(N)C(C)CC (stereo not drawn) (H-I[β3hI]PIVGNIIK-NH2; configuration not given here)	> 50 µM
CCOP(=O)(OCC)/C(C#N)=C/c1cccn1CC(C)C	> 100 µM
Cc1ccc(C)c(NC(=O)CC/C(=N\NC(=O)C(N)=O)C(C)C(=O)c2ccc(O)cc2)c1 (stereo not drawn)	> 100 µM
Nc1ncnc2c1ncn2C1OC(CO)=CC1O (stereo not drawn)	> 37.5 µM

---

- Test system: COLO 205 colon
- ASSAY NAME: NCI tumour cell line growth inhibition, 48 h
REPORTED PROPERTY: GI50

> print(dat)
                                   compound  system.under.test   measured
1  CCC(=C/[C@H](C)C/C=C/C(C)=C/[C@@H](C)C(=O)[C@@H](C)[C@H](O)[C@@H](C)CC)/C=C/[C@H]1OC(=O)C=C[C@H]1C     COLO 205 colon  < 0.01 µM
2  C[C@@H]1C=C2C(=O)O[C@@H]3CC[C@H](C1)[C@]23O     COLO 205 colon    4.64 µM
3  COC(=O)C1=C(C(=O)OC)C23C=C(C)C1C2=C(C)C1(CC1)[C@@](C)(O)C3=O (stereo not given in full)     COLO 205 colon    0.35 µM
4  N.N.NCCCCN.O=C([O-])C1(C(=O)[O-])CCC1.O=C([O-])C1(C(=O)[O-])CCC1.[Pt+4].[Pt+4]     COLO 205 colon   > 100 µM
5  COc1cc(-c2cc(-c3nc4ccc(Cl)cc4[nH]3)[nH]n2)cc(OC)c1OC     COLO 205 colon    3.18 µM

---

Documented TGI across a set of compounds
- Tested on: LXFL 529 NSCLC
- ASSAY NAME: NCI tumour cell line growth inhibition, 48 h
REPORTED PROPERTY: TGI

> print(dat)
                                   compound  system.under.test  reported.property  measured
1                  Nc1nc2nc[nH]c2c(=O)[nH]1     LXFL 529 NSCLC                TGI  > 100 µM
2  Cc1cc(Cl)cc2c1NC(=O)C2(O)C(C)C(=O)c1ccc(Cl)cc1 (stereo not given)     LXFL 529 NSCLC                TGI  > 100 µM
3  COc1ccc2c(c1)OC[C@@H]1c3cc4c(cc3O[C@H]21)OCO4     LXFL 529 NSCLC                TGI  > 100 µM
4  CC(C)(C)c1ccc(C(O)c2ccc(C(C)(C)C)cc2)cc1     LXFL 529 NSCLC                TGI     29 µM
5  CCO[C@]12C[C@H](OC)[C@@]3(O)CC(C1[C@H]3O)C13C4C2[C@H](OC)C1[C@](COC)(CN4CC)[C@H](O)C[C@@H]3OC (stereo not given in full)     LXFL 529 NSCLC                TGI  > 100 µM
